Entry source: paper PMC11345841

Could you please report measured remaining binding at 1 µM for the items listed next?
target: KIT-autoinhibited (Homo sapiens); construct: purchased Eurofins DiscoverX KINOMEscan (scanTK); assay: KINOMEscan ScanTK; assay type: binding; settings: read-out: %Control @1000nM
Sequence (P10721 26-976): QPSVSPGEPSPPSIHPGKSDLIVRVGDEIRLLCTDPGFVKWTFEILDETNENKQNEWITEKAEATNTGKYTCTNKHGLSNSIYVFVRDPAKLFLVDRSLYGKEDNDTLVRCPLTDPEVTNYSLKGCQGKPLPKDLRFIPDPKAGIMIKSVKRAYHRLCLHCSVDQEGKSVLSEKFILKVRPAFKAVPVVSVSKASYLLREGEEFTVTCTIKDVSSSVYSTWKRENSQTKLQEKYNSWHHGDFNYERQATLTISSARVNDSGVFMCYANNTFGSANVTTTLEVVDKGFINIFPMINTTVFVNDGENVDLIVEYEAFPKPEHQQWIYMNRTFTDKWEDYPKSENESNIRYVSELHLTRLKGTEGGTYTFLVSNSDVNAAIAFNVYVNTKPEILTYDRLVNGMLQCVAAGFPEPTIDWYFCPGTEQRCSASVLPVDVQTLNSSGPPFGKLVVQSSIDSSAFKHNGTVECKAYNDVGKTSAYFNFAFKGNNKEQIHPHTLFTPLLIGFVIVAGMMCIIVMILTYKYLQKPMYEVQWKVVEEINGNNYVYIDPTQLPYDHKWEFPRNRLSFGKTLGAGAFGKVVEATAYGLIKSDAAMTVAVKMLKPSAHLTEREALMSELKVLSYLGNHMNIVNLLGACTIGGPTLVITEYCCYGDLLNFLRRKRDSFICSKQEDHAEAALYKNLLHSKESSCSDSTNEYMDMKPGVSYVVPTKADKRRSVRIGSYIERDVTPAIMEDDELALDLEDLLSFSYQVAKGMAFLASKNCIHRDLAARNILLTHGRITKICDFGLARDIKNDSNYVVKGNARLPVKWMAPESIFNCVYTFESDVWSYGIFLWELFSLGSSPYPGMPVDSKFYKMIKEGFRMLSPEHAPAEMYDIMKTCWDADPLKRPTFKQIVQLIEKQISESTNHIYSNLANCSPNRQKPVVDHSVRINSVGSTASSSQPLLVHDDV

Request: Give the measured remaining binding at 1 µM for Cc1cnc(S(C)(=O)=O)nc1N1CCCC(n2nc(-c3ccc(Oc4ccccc4)cc3)c3c(N)ncnc32)C1 (centres unmarked) [Compound 8a]
Result: 100%

Request: Report measured remaining binding at 1 µM; entry is C=CC(=O)N1CCC[C@@H](n2nc(-c3ccc(Oc4ccccc4)cc3)c3c(N)ncnc32)C1 [Compound 1g, Ibrutinib, reference compound]
Result: 88%

Request: Please give the documented remaining binding at 1 µM of CNC(=O)c1cnc(S(C)(=O)=O)nc1N1CCCC(n2nc(-c3ccc(Oc4ccccc4)cc3)c3c(N)ncnc32)C1 (centres unmarked) [Compound 8d]
Result: 100%

Request: Please report the measured remaining binding at 1 µM for COC(=O)c1cnc(S(C)(=O)=O)nc1N1CCCC(n2nc(-c3ccc(Oc4ccccc4)cc3)c3c(N)ncnc32)C1 (centres unmarked) [Compound 8b]
Result: 90%

Request: Tell me measured remaining binding at 1 µM for CCOC(=O)c1cnc(S(C)(=O)=O)nc1N1CCC[C@@H](n2nc(-c3ccc(Oc4ccccc4)cc3)c3c(N)ncnc32)C1 [Compound 8c] please.
Result: 94%

* * *

biological target: ABL1-phosphorylated (Homo sapiens, UniProt P00519); construct: purchased Eurofins DiscoverX KINOMEscan (scanTK); assay: KINOMEscan ScanTK; format: binding; conditions: read-out: %Control @1000nM
Sequence (P00519 whole entry): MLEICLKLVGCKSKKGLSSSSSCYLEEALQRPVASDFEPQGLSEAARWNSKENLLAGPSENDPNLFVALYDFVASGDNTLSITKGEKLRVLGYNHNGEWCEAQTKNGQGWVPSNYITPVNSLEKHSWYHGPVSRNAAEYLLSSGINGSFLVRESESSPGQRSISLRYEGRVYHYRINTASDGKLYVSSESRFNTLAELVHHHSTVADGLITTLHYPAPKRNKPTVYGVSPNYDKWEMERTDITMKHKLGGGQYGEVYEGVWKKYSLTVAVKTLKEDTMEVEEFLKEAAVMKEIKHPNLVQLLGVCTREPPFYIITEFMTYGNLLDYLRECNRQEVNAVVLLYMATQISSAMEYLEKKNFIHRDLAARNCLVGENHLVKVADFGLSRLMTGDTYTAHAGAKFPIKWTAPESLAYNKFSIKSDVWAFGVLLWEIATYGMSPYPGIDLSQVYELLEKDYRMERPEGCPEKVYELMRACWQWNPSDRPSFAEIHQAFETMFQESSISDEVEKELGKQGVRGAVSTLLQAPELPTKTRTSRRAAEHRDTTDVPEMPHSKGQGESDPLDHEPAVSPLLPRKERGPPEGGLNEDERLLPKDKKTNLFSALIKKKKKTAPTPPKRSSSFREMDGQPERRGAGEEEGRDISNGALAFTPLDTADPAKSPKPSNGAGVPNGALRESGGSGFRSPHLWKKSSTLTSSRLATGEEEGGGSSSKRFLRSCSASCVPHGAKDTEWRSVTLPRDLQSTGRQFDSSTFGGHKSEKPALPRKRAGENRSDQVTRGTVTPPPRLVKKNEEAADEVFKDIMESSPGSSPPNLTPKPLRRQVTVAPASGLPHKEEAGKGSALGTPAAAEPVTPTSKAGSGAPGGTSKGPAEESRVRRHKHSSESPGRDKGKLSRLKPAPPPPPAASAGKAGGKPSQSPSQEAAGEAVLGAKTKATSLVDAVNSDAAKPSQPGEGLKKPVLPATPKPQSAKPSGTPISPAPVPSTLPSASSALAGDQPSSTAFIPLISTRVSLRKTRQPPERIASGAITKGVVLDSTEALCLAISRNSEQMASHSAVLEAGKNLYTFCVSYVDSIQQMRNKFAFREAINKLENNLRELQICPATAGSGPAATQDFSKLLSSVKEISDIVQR
Task for the reader: assign each of the following compounds its reported remaining binding at 1 µM.
All answers are understood in %, so give the number only.

Request: For Cc1cnc(S(C)(=O)=O)nc1N1CCCC(n2nc(-c3ccc(Oc4ccccc4)cc3)c3c(N)ncnc32)C1 (centres unmarked) , write its remaining binding at 1 µM.
Result: 80

Request: Answer with the recorded remaining binding at 1 µM for the compound listed here: C=CC(=O)N1CCC[C@@H](n2nc(-c3ccc(Oc4ccccc4)cc3)c3c(N)ncnc32)C1 [Compound 1g, Ibrutinib, reference compound]
Result: 60

Request: Please give the documented remaining binding at 1 µM of COC(=O)c1cnc(S(C)(=O)=O)nc1N1CCCC(n2nc(-c3ccc(Oc4ccccc4)cc3)c3c(N)ncnc32)C1 (centres unmarked)
Result: 79

Request: Quick one: give measured remaining binding at 1 µM for CNC(=O)c1cnc(S(C)(=O)=O)nc1N1CCCC(n2nc(-c3ccc(Oc4ccccc4)cc3)c3c(N)ncnc32)C1 (centres unmarked)
Result: 55

Request: Specify measured remaining binding at 1 µM for "CCOC(=O)c1cnc(S(C)(=O)=O)nc1N1CCC[C@@H](n2nc(-c3ccc(Oc4ccccc4)cc3)c3c(N)ncnc32)C1" .
Result: 57

* * *

target: FLT3(K663Q) (Homo sapiens, UniProt P36888, K663Q); construct: purchased Eurofins DiscoverX KINOMEscan (scanTK); test: KINOMEscan ScanTK; assay type: binding; details: read-out: %Control @1000nM
hey, just use yes (1) if measured remaining binding at 1 µM is less than 60%, otherwise no (0)

Request: I wonder whether CNC(=O)c1cnc(S(C)(=O)=O)nc1N1CCCC(n2nc(-c3ccc(Oc4ccccc4)cc3)c3c(N)ncnc32)C1 (centres unmarked) has remaining binding at 1 µM below 60%. Can you tell?
Result: no (0)

Request: Report whether reported remaining binding at 1 µM is lower than 60% (strictly) for "CCOC(=O)c1cnc(S(C)(=O)=O)nc1N1CCC[C@@H](n2nc(-c3ccc(Oc4ccccc4)cc3)c3c(N)ncnc32)C1"
Result: no (0)

Request: Threshold test, remaining binding at 1 µM < 60%: COC(=O)c1cnc(S(C)(=O)=O)nc1N1CCCC(n2nc(-c3ccc(Oc4ccccc4)cc3)c3c(N)ncnc32)C1 (centres unmarked)
Result: no (0)

Request: In plain terms, does C=CC(=O)N1CCC[C@@H](n2nc(-c3ccc(Oc4ccccc4)cc3)c3c(N)ncnc32)C1 [Compound 1g, Ibrutinib, reference compound] come in under 60% for remaining binding at 1 µM?
Result: yes (1)

Request: For this compound, is remaining binding at 1 µM lower than 60%? Cc1cnc(S(C)(=O)=O)nc1N1CCCC(n2nc(-c3ccc(Oc4ccccc4)cc3)c3c(N)ncnc32)C1 (centres unmarked)
Result: yes (1)

* * *

I'd appreciate it if you could supply number of genes unchanged vs DMSO values for the items below.
test system: TMD8 cells; assay: RNA-seq gene expression; conditions: TMD8, 1 μM, 8 h
Field: numeric (genes). Do not append units.

Request: Could you please provide reported number of genes unchanged vs DMSO for Cc1cnc(S(C)(=O)=O)nc1N1CCCC(n2nc(-c3ccc(Oc4ccccc4)cc3)c3c(N)ncnc32)C1 (centres unmarked) [Compound 8a] ? Thanks!
Result: 14761

Request: Could you please provide reported number of genes unchanged vs DMSO for CCOC(=O)c1cnc(S(C)(=O)=O)nc1N1CCC[C@@H](n2nc(-c3ccc(Oc4ccccc4)cc3)c3c(N)ncnc32)C1 [Compound 8c] ? Thanks!
Result: 15047

Request: Tell me measured number of genes unchanged vs DMSO for C=CC(=O)N1CCC[C@@H](n2nc(-c3ccc(Oc4ccccc4)cc3)c3c(N)ncnc32)C1 [Compound 1g, Ibrutinib, reference compound] please.
Result: 14846

Request: Report measured number of genes unchanged vs DMSO; entry is CNC(=O)c1cnc(S(C)(=O)=O)nc1N1CCCC(n2nc(-c3ccc(Oc4ccccc4)cc3)c3c(N)ncnc32)C1 (centres unmarked) [Compound 8d]
Result: 14389

Request: Give me measured number of genes unchanged vs DMSO, please, for this compound: COC(=O)c1cnc(S(C)(=O)=O)nc1N1CCCC(n2nc(-c3ccc(Oc4ccccc4)cc3)c3c(N)ncnc32)C1 (centres unmarked) [Compound 8b]
Result: 15031

* * *

target: TXK (Homo sapiens, UniProt P42681); construct: purchased Eurofins DiscoverX KINOMEscan (scanTK); assay: KINOMEscan ScanTK; type: binding; settings: @1000nM, read-out: %Control
Sequence (P42681 whole entry): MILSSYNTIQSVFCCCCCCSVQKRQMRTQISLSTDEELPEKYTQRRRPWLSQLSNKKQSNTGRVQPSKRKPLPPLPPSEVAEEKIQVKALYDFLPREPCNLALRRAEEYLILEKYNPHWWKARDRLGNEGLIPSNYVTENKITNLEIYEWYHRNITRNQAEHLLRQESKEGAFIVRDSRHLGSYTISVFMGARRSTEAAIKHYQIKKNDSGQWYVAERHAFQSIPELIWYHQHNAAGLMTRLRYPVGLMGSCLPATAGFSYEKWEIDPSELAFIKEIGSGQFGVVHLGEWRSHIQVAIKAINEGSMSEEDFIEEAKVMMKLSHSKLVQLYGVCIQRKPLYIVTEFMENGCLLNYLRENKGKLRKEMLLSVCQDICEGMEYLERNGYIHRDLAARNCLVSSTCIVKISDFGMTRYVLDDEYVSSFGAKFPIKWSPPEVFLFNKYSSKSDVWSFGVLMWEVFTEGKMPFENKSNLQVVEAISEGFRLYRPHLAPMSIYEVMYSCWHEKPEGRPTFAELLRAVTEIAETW
Please respond with reported remaining binding at 1 µM for every item in the list.
Lab book: enter the figure in %, no units written.

Request: Report measured remaining binding at 1 µM; entry is Cc1cnc(S(C)(=O)=O)nc1N1CCCC(n2nc(-c3ccc(Oc4ccccc4)cc3)c3c(N)ncnc32)C1 (centres unmarked)
Result: 14

Request: Output remaining binding at 1 µM of CNC(=O)c1cnc(S(C)(=O)=O)nc1N1CCCC(n2nc(-c3ccc(Oc4ccccc4)cc3)c3c(N)ncnc32)C1 (centres unmarked)
Result: 10

Request: Input "CCOC(=O)c1cnc(S(C)(=O)=O)nc1N1CCC[C@@H](n2nc(-c3ccc(Oc4ccccc4)cc3)c3c(N)ncnc32)C1" , output reported remaining binding at 1 µM.
Result: 12

Request: Entry C=CC(=O)N1CCC[C@@H](n2nc(-c3ccc(Oc4ccccc4)cc3)c3c(N)ncnc32)C1 [Compound 1g, Ibrutinib, reference compound] needs its remaining binding at 1 µM filled in; supply it.
Result: 8.7

Request: Answer with reported remaining binding at 1 µM of COC(=O)c1cnc(S(C)(=O)=O)nc1N1CCCC(n2nc(-c3ccc(Oc4ccccc4)cc3)c3c(N)ncnc32)C1 (centres unmarked)
Result: 11

* * *

biological target: CSF1R-autoinhibited (Homo sapiens); construct: purchased Eurofins DiscoverX KINOMEscan (scanTK); assay: KINOMEscan ScanTK; assay type: binding; settings: @1000nM
Sequence (P07333 539-972 limits assumed): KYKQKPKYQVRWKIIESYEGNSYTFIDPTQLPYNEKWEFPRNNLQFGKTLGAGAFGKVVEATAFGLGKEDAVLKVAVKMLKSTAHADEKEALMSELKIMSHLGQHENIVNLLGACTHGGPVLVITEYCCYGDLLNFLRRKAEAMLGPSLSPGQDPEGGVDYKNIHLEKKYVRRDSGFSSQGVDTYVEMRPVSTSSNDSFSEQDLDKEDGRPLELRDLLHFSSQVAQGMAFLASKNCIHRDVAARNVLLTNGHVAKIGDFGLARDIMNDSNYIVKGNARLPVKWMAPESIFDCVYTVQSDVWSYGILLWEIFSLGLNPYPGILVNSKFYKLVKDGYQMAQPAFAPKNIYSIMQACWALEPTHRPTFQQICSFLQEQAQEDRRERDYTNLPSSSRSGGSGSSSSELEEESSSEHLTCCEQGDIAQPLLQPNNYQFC
READOUT LABEL: difference in %Control versus compound Ib at 1 µM
Answer with the value and then the unit.

Request: Hello, please tell me recorded difference in %Control versus compound Ib at 1 µM for this one: Cc1cnc(S(C)(=O)=O)nc1N1CCCC(n2nc(-c3ccc(Oc4ccccc4)cc3)c3c(N)ncnc32)C1 (stereo not shown)
Result: 11%

Request: Consider the molecule COC(=O)c1cnc(S(C)(=O)=O)nc1N1CCCC(n2nc(-c3ccc(Oc4ccccc4)cc3)c3c(N)ncnc32)C1 (stereo not shown) . State its measured difference in %Control versus compound Ib at 1 µM.
Result: 7%

Request: Note down difference in %Control versus compound Ib at 1 µM recorded for CNC(=O)c1cnc(S(C)(=O)=O)nc1N1CCCC(n2nc(-c3ccc(Oc4ccccc4)cc3)c3c(N)ncnc32)C1 (stereo not shown)
Result: 9%

Request: Answer with the recorded difference in %Control versus compound Ib at 1 µM for the molecule listed here: "CCOC(=O)c1cnc(S(C)(=O)=O)nc1N1CCC[C@@H](n2nc(-c3ccc(Oc4ccccc4)cc3)c3c(N)ncnc32)C1"
Result: 20%

* * *

Record form. Attribute: remaining binding at 1 µM. Fill in for each entry.
molecular target: FES (Homo sapiens, UniProt P07332); construct: purchased Eurofins DiscoverX KINOMEscan (scanTK); experiment: KINOMEscan ScanTK; format: binding; details: @1000nM, read-out: %Control
Sequence (P07332 whole entry): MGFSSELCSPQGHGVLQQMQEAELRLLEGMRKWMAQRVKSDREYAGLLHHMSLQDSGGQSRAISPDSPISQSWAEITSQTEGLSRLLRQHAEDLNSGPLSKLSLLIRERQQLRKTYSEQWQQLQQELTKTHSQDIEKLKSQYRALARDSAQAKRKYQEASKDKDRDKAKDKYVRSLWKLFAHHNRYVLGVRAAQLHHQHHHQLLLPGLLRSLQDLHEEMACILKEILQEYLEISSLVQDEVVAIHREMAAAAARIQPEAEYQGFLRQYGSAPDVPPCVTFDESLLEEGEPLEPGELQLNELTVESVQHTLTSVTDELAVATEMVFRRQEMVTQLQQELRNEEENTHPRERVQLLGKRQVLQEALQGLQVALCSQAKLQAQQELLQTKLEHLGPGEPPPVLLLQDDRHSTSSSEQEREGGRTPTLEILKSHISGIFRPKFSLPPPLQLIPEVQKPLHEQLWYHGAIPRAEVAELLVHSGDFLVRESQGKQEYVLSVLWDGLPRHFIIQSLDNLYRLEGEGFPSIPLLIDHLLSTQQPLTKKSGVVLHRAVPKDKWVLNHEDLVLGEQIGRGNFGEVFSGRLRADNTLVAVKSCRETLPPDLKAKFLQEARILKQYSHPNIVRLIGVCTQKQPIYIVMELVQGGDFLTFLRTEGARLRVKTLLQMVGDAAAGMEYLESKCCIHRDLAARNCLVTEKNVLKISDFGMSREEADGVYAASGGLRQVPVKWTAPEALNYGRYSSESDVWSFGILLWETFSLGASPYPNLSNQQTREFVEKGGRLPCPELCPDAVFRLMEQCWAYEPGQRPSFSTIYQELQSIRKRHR
Write the answer as a number in %, unit excluded.

Request: Read the entry CNC(=O)c1cnc(S(C)(=O)=O)nc1N1CCCC(n2nc(-c3ccc(Oc4ccccc4)cc3)c3c(N)ncnc32)C1 (centres unmarked) and write its reported remaining binding at 1 µM.
Result: 100

Request: Indicate the recorded remaining binding at 1 µM value for this compound: COC(=O)c1cnc(S(C)(=O)=O)nc1N1CCCC(n2nc(-c3ccc(Oc4ccccc4)cc3)c3c(N)ncnc32)C1 (centres unmarked)
Result: 100

Request: Look up and report measured remaining binding at 1 µM for this entry: Cc1cnc(S(C)(=O)=O)nc1N1CCCC(n2nc(-c3ccc(Oc4ccccc4)cc3)c3c(N)ncnc32)C1 (centres unmarked)
Result: 100

Request: Note remaining binding at 1 µM for the compound shown: "CCOC(=O)c1cnc(S(C)(=O)=O)nc1N1CCC[C@@H](n2nc(-c3ccc(Oc4ccccc4)cc3)c3c(N)ncnc32)C1"
Result: 96

Request: Retrieve remaining binding at 1 µM measured for C=CC(=O)N1CCC[C@@H](n2nc(-c3ccc(Oc4ccccc4)cc3)c3c(N)ncnc32)C1 [Compound 1g, Ibrutinib, reference compound] and print it.
Result: 100
